biological target: Prostaglandin E synthase (Homo sapiens); assay: Inhibition of mPGES1 in human whole blood assessed as reduction in LPS-induced PGE2 production measured after 20 to 24 hrs
Sequence (O14684 whole entry): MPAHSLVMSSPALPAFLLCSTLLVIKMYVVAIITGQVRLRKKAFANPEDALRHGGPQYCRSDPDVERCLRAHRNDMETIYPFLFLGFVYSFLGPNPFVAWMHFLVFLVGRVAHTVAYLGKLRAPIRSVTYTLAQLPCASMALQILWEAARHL
pIC50: −log10 of the molar value.
Recorded pIC50, one value per entry.
endpoint: pIC50

>  <test_smiles>
Cc1ccc(NC(=O)c2cc3nc(Nc4c(F)cccc4Cl)n(C)c3c3c2OC(C)(C)C3)c(F)c1

>  <endpoint>
pIC50

>  <observed_measurement>
6.75

$$$$
>  <test_smiles>
Cn1c(Nc2c(F)cccc2Cl)nc2cc(C(=O)Nc3ccc(C(F)(F)F)cn3)c3c(c21)CC(C)(C)O3

>  <endpoint>
pIC50

>  <observed_measurement>
6.17

$$$$
>  <test_smiles>
CC1(C)Cc2c(c(C(=O)Nc3ccc(F)c(C(F)(F)F)c3)cc3nc(Nc4c(F)cccc4Cl)[nH]c23)O1

>  <endpoint>
pIC50

>  <observed_measurement>
6.68

$$$$
>  <test_smiles>
Cn1c(Nc2c(F)cccc2Cl)nc2cc(C(=O)Nc3ccc(C4CC4)cc3)c3c(c21)CC(C)(C)O3

>  <endpoint>
pIC50

>  <observed_measurement>
6.46

$$$$

Hey, just so you know, these numbers are from ChEMBL document CHEMBL4219124.
